The reported numbers originate from ChEMBL document CHEMBL5625200.

experimentalSystem: Endothelin-1 receptor (Homo sapiens, UniProt P25101)
Sequence (P25101 whole entry): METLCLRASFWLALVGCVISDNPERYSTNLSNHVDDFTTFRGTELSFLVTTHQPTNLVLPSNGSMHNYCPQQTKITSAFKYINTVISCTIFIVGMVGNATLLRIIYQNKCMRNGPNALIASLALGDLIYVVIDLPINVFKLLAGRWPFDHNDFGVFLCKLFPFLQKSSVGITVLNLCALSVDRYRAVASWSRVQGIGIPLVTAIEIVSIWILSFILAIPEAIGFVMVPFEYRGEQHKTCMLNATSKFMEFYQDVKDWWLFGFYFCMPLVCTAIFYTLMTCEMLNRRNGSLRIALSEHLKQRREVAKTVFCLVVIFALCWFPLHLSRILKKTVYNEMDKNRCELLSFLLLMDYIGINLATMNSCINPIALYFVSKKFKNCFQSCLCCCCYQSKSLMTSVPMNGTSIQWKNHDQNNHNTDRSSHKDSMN
assayRemarks: Antagonist activity against human ET-1 by ELISA analysis
assayMetric: IC50 (nM)
Respond numerically; units are nM and should not be typed.

compound	experimentalSystem	unitsLabel	assayValue
COc1ccccc1Oc1c(NS(=O)(=O)c2ccccc2)nc(-c2ncccn2)nc1OCC1CCC1	Endothelin-1 receptor (Homo sapiens, UniProt P25101)	nM	1.84
COc1ccccc1Oc1c(NS(=O)(=O)c2ccc(C(C)(C)C)cc2)nc(-c2ncccn2)nc1OCC1CCC1	Endothelin-1 receptor (Homo sapiens, UniProt P25101)	nM	1.05
COc1ccccc1Oc1c(NS(=O)(=O)c2ccc(C(C)(C)C)cc2)nc(-c2ncccn2)nc1OCC1CCCN(C)C1 (stereo not drawn)	Endothelin-1 receptor (Homo sapiens, UniProt P25101)	nM	1.43

INPUT: Let me know recorded IC50 for C=CCCOc1nc(-c2ncccn2)nc(NS(C)(=O)=O)c1Oc1ccccc1OC , thanks.
OUTPUT: 2.41

INPUT: Give the reported value of IC50 for this record: CC#CCOc1nc(-c2ncccn2)nc(NS(C)(=O)=O)c1Oc1ccccc1OC
OUTPUT: 2.13
